Source listed as the supplement of paper PMC10065799.

# maps each entry to its phosphorylation enrichment
TEST TARGET: Fes (UniProt P07332)
Sequence (P07332 whole entry, looked up): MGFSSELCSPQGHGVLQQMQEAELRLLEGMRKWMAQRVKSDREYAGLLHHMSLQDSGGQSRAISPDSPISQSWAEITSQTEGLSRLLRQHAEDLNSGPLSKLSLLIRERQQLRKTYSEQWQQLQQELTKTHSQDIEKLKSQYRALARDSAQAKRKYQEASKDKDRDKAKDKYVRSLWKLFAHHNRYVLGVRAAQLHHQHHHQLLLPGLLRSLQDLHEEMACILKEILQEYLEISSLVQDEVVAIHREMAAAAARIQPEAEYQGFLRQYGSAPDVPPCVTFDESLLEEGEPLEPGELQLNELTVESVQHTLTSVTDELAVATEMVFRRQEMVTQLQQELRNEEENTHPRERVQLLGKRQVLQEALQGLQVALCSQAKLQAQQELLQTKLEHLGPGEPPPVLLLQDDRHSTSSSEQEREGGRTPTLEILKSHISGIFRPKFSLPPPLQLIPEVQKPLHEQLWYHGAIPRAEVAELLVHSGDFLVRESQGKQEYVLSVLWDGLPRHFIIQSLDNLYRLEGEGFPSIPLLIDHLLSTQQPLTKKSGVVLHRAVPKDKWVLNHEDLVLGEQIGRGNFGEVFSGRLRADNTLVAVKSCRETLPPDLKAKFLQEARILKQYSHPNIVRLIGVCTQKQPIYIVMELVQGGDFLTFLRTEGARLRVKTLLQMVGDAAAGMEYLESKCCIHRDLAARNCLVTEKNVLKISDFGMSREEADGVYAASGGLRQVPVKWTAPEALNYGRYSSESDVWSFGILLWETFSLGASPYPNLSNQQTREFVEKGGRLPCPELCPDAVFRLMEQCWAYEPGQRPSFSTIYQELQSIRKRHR
PROTOCOL DETAILS: phosphorylation enrichment, bacterial display (enrichment ratio); higher = better substrate or ligand; peptides without Tyr show the background;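 note: 11-residue human phosphosite peptides and single-mutation variants displayed on the E. coli surface, counted by deep sequencing, each peptide's frequency after selection divided by its frequency in the unselected input library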;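 note: frequency after pTyr selection over input frequency; kinase dosed for 20-30% of maximal phosphorylation in three min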
Write no unit; give the number alone.

Please review the entries below; each comes with its answer.
NDTAGYFVIGG [SEL1L3_Y399_I401V] ... 1.1
CTTSHYNFMCN [TP53_Y234_I232S_YF] ... 0.967
AEPNIYQEKLS [USP54_Y1233_D1231N] ... 0.748
HESEIYCKVCF [CSRP3_Y57_YF] ... 1.11
DTKAFYPEEIS [HSPA1A_Y115_E110D] ... 1.1
GPCKAYELSQR [SETX_Y1297_R1294C] ... 0.969
RQQQDYWLKDV [ANPEP_Y600_I603K] ... 0.911
FLAATYPTVGQ [NF1_Y2508_YF] ... 0.634

Lab entry: Fes (UniProt P07332) assay, sequence KVMANYMYKAG [MAML2_Y513] , phosphorylation enrichment = 0.836

Lab entry: Fes (UniProt P07332) assay, sequence SPPILYSFYLN [FCRL6_Y239_D244N] , phosphorylation enrichment = 1.12

Lab entry: Fes (UniProt P07332) assay, sequence FSPGSYERETF [NF1_Y2192] , phosphorylation enrichment = 0.856

Lab entry: Fes (UniProt P07332) assay, sequence MSSLPYMKVIF [SLC4A11_Y853_M856V] , phosphorylation enrichment = 0.84

Lab entry: Fes (UniProt P07332) assay, sequence HDRNTYEKYLE [TF_Y666_G671E] , phosphorylation enrichment = 1.21

----------
TEST TARGET: EPHB2 (UniProt P29323)
Sequence (P29323 whole entry, looked up): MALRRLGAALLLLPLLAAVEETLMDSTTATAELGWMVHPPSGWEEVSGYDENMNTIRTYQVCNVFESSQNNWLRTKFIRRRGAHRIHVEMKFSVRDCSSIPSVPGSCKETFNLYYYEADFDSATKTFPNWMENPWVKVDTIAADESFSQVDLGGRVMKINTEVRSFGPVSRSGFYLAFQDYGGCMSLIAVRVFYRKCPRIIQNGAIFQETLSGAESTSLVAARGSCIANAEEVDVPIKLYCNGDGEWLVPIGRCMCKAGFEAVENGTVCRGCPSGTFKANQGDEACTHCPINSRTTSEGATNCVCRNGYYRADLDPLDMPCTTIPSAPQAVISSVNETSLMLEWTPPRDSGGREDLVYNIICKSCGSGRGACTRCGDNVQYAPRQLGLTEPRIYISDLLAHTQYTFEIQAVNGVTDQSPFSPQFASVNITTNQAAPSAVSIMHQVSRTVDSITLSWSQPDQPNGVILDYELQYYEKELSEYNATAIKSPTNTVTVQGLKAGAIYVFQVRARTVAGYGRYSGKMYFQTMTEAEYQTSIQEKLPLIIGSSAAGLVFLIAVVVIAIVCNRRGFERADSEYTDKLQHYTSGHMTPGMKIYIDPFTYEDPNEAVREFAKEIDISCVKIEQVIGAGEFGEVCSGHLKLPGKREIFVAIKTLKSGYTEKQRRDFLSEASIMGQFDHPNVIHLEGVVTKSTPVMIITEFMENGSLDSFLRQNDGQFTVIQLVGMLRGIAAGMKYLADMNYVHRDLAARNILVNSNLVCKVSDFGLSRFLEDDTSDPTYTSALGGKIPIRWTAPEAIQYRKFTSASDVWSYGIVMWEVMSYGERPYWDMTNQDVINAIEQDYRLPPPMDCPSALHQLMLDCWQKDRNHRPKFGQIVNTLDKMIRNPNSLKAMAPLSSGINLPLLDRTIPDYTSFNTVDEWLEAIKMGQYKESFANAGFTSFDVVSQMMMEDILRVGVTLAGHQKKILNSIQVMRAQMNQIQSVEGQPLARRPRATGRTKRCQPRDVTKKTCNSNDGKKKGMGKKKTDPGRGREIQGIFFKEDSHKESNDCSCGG
PROTOCOL DETAILS: phosphorylation enrichment, bacterial display (enrichment ratio); higher = better substrate or ligand; peptides without Tyr show the background
# maps each entry to its phosphorylation enrichment

Please review the entries below; each comes with its answer.
CYCSWYRGWAP [TIMP3_Y195_G190C] ... 0.632
PELIDYGKLRK [ACTN1_Y193] ... 0.668
DSDTDYGSGYP [RNASEH2A_Y206_L202S] ... 0.573
YKGKKYKPLDL [RPL35_Y78] ... 0.391
YRKNIYNVKST [SYNE2_Y575] ... 0.423
KNITEYCRHLI [RECQL_Y492_D495H] ... 0.436

phosphorylation enrichment for KTSGNYLPVTG [WDR19_Y28_A30P] is 0.435

phosphorylation enrichment for IDNKMYDPKMN [ENPP1_Y280] is 0.362

----------
Tested on: Fer (mouse)
PROTOCOL DETAILS: phosphorylation enrichment, bacterial display (enrichment ratio); higher = better substrate or ligand; peptides without Tyr show the background
Returns the class for an entry based on its phosphorylation enrichment. Class ranges: low end = under 0.4, middle = from 0.4 up to 0.7, high end = 0.7 and over

NTVDYYDLYGG [PTPN11_Y63_G60V] ... high end

For this sequence, which bin applies? LARDMCDKEFF [MET_Y1230_Y1230C_YF]
high end

For this sequence, which bin applies? KVMANYVFKAG [MAML2_Y513_M514V_YF]
low end

For this sequence, which bin applies? TDIVAYSGWVQ [SPTBN2_Y477_R480W]
high end

For this sequence, which bin applies? ELETLYKKAVK [CC2D2A_Y381]
low end

For this sequence, which bin applies? NLSVPYDSSLK [ABCC8_Y1353_R1352P]
middle

For this sequence, which bin applies? CLAKMYYSAVD [CP_Y539]
high end

For this sequence, which bin applies? QTWKTYVRQQQ [SFI1_Y164]
middle

For this sequence, which bin applies? LHRHAYPEQQQ [DPPA2_Y127_R131Q]
high end

For this sequence, which bin applies? NHQYDYTFHWT [CSNK1A1_Y294_D297H]
high end

For this sequence, which bin applies? IQTDGDRAPEA [UHMK1_Y197_Y197D]
middle

For this sequence, which bin applies? IFKAAYFGVFD [SLC25A4_Y191_R188K_YF]
middle

----------
# maps each entry to its phosphorylation enrichment
TEST TARGET: MERTK (UniProt Q12866)
Sequence (Q12866 whole entry, looked up): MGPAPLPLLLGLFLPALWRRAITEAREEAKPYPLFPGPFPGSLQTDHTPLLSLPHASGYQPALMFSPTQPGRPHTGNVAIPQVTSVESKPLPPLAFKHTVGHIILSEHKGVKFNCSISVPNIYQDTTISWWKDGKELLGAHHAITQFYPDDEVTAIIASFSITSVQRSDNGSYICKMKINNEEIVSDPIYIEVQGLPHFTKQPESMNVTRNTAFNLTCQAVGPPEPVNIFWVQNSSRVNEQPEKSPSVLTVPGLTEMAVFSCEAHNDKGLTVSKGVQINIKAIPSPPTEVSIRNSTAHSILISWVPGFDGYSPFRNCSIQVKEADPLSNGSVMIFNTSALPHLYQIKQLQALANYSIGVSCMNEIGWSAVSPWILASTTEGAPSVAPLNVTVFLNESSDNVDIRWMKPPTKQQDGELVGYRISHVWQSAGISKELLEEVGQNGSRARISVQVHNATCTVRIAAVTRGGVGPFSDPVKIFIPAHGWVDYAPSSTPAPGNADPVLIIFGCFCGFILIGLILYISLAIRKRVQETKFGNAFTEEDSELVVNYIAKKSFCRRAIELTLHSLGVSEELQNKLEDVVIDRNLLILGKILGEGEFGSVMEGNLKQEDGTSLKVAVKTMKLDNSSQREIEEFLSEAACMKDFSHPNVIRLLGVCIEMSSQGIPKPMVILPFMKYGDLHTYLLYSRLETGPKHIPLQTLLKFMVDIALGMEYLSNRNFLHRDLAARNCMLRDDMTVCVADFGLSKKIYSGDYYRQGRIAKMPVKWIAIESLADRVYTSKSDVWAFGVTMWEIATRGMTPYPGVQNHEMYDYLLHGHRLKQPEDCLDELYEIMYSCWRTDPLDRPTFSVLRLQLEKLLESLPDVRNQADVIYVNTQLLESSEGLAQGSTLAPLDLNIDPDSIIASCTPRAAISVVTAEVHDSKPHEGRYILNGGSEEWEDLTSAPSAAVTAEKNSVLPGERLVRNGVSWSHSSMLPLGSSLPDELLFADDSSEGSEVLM
PROTOCOL DETAILS: phosphorylation enrichment, bacterial display (enrichment ratio); higher = better substrate or ligand; peptides without Tyr show the background
Write no unit; give the number alone.

Please review the entries below; each comes with its answer.
NGSKGYAFVHF [PABPC5_Y147_YF] ... 0.444
AFLQTYSHEVS [PCDHGA5_Y753] ... 0.585
PTTKTYFRHFD [HBA1_Y43_P45R] ... 0.466
GTQGSYLLSRK [UGT3A1_Y123_C121G] ... 0.433
THPFLYLSLEI [MLH1_Y293] ... 0.385

Lab entry: MERTK (UniProt Q12866) assay, sequence TDIVAYSGWVQ [SPTBN2_Y477_R480W] , phosphorylation enrichment = 0.621

Lab entry: MERTK (UniProt Q12866) assay, sequence DVCKKYAEAKD [ALB_Y343_N342K] , phosphorylation enrichment = 0.402

----------
TEST TARGET: EPHB2 (UniProt P29323)
PROTOCOL DETAILS: phosphorylation enrichment, bacterial display (enrichment ratio); higher = better substrate or ligand; peptides without Tyr show the background
# maps each entry to its phosphorylation enrichment
Write no unit; give the number alone.

LHAALYKRKLL [TTLL5_Y542_E543K] ... 0.527
EVDGLYREAPI [MYL12B_Y143_E141G] ... 0.527
NVTGHYIPPFH [PPA2_Y59_S61P] ... 0.393
REGDKYVSHGA [ASS1_Y113_A111D] ... 0.622
RSFSPCDFQPC [TNS1_Y796_Y796C_YF] ... 0.991

Lab entry: EPHB2 (UniProt P29323) assay, sequence KSDVVYTDWKK [ORM1_Y175] , phosphorylation enrichment = 0.513

Lab entry: EPHB2 (UniProt P29323) assay, sequence IENKLYGTSDP [RET_Y1062_M1064T] , phosphorylation enrichment = 0.544

----------
Test system: c-Abl (mouse)
PROTOCOL DETAILS: phosphorylation enrichment, bacterial display (enrichment ratio); higher = better substrate or ligand; peptides without Tyr show the background
Respond with Satisfied for phosphorylation enrichment values of 0.9 and above, Not satisfied for values below.

Check out these entries, answers already filled in.
SSMIDYNLLEK [MYOC_Y479_P481L] ... Not satisfied
LIDGFYRLTAD [JAK2_Y373_YF] ... Not satisfied
LVMFIYDIFGM [SCN1A_Y1684_A1685D] ... Satisfied
FFRNVYHLASV [RBL1_Y796_K794N_YF] ... Not satisfied

Kindly consider the entry below.
hey, is phosphorylation enrichment for this one >= 0.9? NDKLRYEVSSP [CDH13_Y66]
Not satisfied

----------
# maps each entry to its phosphorylation enrichment
Test system: AncSZ
PROTOCOL DETAILS: phosphorylation enrichment, bacterial display (enrichment ratio); higher = better substrate or ligand; peptides without Tyr show the background
Write no unit; give the number alone.

Please review the entries below; each comes with its answer.
CTIIHYNFMCN [TP53_Y234_T231I_YF] ... 1.12
ASTDYYKRGDF [PDHA1_Y243] ... 0.685
RRQDLYSARDL [SART1_Y249] ... 1.45
LAETSYVKVLE [MAGEA1_Y276] ... 0.817
DGTESYLTVSS [PLK1_Y462] ... 0.89

phosphorylation enrichment for DPASAYADEVK [ETNPPL_Y189_S185P] is 1.06

phosphorylation enrichment for SFDLDYDSVQP [MYC_Y16_N11S_YF] is 1.78

phosphorylation enrichment for LTGIAYGLPHW [SLC22A14_Y291_S292G] is 1.16

phosphorylation enrichment for EKIANYKEGTY [CLRN1_Y171] is 0.671

phosphorylation enrichment for PTTKSYFPHFD [HBA1_Y43_T42S] is 1.13

----------
# maps each entry to its phosphorylation enrichment
Test system: c-Abl (mouse)
PROTOCOL DETAILS: phosphorylation enrichment, bacterial display (enrichment ratio); higher = better substrate or ligand; peptides without Tyr show the background
Write no unit; give the number alone.

Please review the entries below; each comes with its answer.
RRQDLYSARDL [SART1_Y249] ... 0.525
QGQHWYSSSDT [CASP10_Y9_K14T] ... 1.06
SASSSYSRSRS [SRRM4_Y549_R547S] ... 0.408
NYADPYRQLQY [CTNND2_Y503] ... 0.687

phosphorylation enrichment for LREIRYQGGNR [VWF_Y1570_V1565L] is 0.653

phosphorylation enrichment for EERKTYVNTML [TEK_Y1102_T1106M] is 0.55

phosphorylation enrichment for KPYRVYCDMNT [FGB_Y269] is 0.779

phosphorylation enrichment for DGQVNYEEFVQ [CALM1_Y139] is 0.957

phosphorylation enrichment for ALCHYYKLNII [ETV6_Y402_R399C] is 2
